- experimental system: STAT3 (Homo sapiens, UniProt P40763)
- Construct: plasmid pSTAT3-TA-luc), which contains a stably operating STAT3 promoter; endogenous in cells
- Sequence (P40763 whole entry): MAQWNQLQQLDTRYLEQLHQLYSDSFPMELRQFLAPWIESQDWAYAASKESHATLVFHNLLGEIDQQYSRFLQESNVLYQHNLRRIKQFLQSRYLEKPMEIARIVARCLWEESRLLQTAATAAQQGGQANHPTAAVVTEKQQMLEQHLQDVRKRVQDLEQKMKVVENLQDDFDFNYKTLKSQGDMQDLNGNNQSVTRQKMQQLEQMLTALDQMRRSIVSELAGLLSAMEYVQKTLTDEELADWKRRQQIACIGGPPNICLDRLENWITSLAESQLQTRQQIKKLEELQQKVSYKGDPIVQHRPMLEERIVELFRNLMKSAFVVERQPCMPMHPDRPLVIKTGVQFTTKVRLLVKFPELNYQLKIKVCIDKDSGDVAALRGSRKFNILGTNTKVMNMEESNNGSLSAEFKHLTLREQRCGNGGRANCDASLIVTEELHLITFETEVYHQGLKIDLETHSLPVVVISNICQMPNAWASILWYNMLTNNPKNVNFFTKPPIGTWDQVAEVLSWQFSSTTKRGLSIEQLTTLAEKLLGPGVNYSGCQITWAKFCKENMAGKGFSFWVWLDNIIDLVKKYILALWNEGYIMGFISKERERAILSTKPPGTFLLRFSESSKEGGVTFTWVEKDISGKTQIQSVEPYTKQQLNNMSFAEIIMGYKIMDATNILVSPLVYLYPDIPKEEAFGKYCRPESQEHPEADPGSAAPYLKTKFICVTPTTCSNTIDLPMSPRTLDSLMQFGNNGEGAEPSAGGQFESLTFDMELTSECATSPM
- test description: STAT3 reporter gene assay (luciferase), LNCaP stable cell line (pSTAT3-TA-luc), IL-6 stimulation
- Assay type: cell-based
readout kind: IC50

# IC50 lookup, item `CC(C)(c1ccc(F)cc1)c1cccc(NC(=O)c2cc3ccc(S(C)(=O)=O)cc3[nH]2)c1`
> 10 µM

# IC50 lookup, item `CS(=O)(=O)Nc1ccc2cc(C(=O)Nc3cc(-c4cncnc4)cc(-c4ccc(F)cc4F)c3)[nH]c2c1`
> 10 µM

# IC50 lookup, item `COC(=O)c1cc(-c2cccc(NC(=O)c3cc4ccc(NS(C)(=O)=O)cc4[nH]3)c2)c(C(F)(F)F)cc1OC`
> 10 µM

---

- experimental system: STAT3 (Homo sapiens, UniProt P40763)
- Construct: plasmid pSTAT3-TA-luc), which contains a stably operating STAT3 promoter; endogenous in cells
- test description: STAT3 reporter gene assay (luciferase), LNCaP stable cell line (pSTAT3-TA-luc), IL-6 stimulation
- Assay type: cell-based
Can you tell me IC50 for the items I'm about to list?
Answer as a quantity: numeral, then unit.

# IC50 lookup, item `CS(=O)(=O)Nc1ccc2cc(C(=O)Nc3cccc(-c4cccnc4C(F)(F)F)c3)[nH]c2c1`
2.7 µM

# IC50 lookup, item `CC(C)(c1cc(Cl)cc(NC(=O)c2cc3cc(NS(C)(=O)=O)ccc3s2)c1)c1cc(OC2CCNCC2)cc(OC(F)(F)F)c1`
3.4 µM

# IC50 lookup, item `COc1cccc(S(=O)(=O)c2cccc(NC(=O)c3cc4ccc(NS(C)(=O)=O)cc4[nH]3)c2)n1`
2.4 µM

---

- Test system: LNCaP
- test description: Cell growth inhibition assay, prostate cancer cell line LNCaP (medium with 10 ng/mL IL-6)
- Format: cell-based
- stated conditions: Homo sapiens, medium supplemented with 10 ng/mL of IL-6, 10,000 cells/well
readout kind: IC50

# IC50 lookup, item `CS(=O)(=O)Nc1ccc2cc(C(=O)Nc3cccc(-c4cc(C(N)=O)c(O)cc4C(F)(F)F)c3)[nH]c2c1`
> 10 µM

# IC50 lookup, item `CC(C)Oc1cc(OC(F)(F)F)cc(C(C)(C)c2cc(Cl)cc(NC(=O)c3cc4cc(NC(=O)OC(C)(C)C)ccc4s3)c2)c1`
> 1.1 µM

# IC50 lookup, item `CC(C)(c1cc(Cl)cc(NC(=O)c2cc3cc(NS(C)(=O)=O)ccc3s2)c1)n1cnccc1=O`
> 10 µM

---

Can you tell me IC50 for the items I'm about to list?
- Test system: LNCaP
- test description: Cell growth inhibition assay, prostate cancer cell line LNCaP (medium with 10 ng/mL IL-6)
- Format: cell-based
- stated conditions: Homo sapiens, medium supplemented with 10 ng/mL of IL-6, 10,000 cells/well

# IC50 lookup, item NS(=O)(=O)Nc1ccc2cc(C(=O)Nc3cccc(-c4ccc(F)cc4F)c3)[nH]c2c1 [Example 274]
> 10 µM

# IC50 lookup, item O=C(Nc1cccc(-c2ccc(F)cc2F)c1)c1nc2cc([N+](=O)[O-])ccc2[nH]1 [Example 233]
> 10 µM

# IC50 lookup, item CS(=O)(=O)c1ccc2cc(C(=O)Nc3cc(Br)cc(-c4ccc(F)cc4F)c3)[nH]c2c1 [Example 304]
> 10 µM

# IC50 lookup, item Cc1c(C(=O)Nc2cccc(-c3ccccc3C(F)(F)F)c2)n(CCN2CCOCC2)c2ccc([N+](=O)[O-])cc12 [Example 251]
> 10 µM

# IC50 lookup, item CS(=O)(=O)c1ccc2cc(C(=O)Nc3cccc(-c4ccc(F)cc4F)c3)[nH]c2c1 [Example 240]
> 10 µM

# IC50 lookup, item CC(C)Oc1cc(OC(F)(F)F)cc(C(C)(C)c2cc(Cl)cc(NC(=O)c3cc4cc(NS(C)(=O)=O)c(F)cc4s3)c2)c1 [Example 84]
0.008 µM
